# System: Protocadherin-15 (Homo sapiens), Q96QU1 [R3X]
# protocol description: Effect on human PCDH15 R3X mutation translation level at 80 ug/ml
Measured Activity accompanies every entry in the list below.
Respond numerically; units are % and should not be typed.

[
  {
    "smiles str": "N[C@H]1[C@@H](O[C@H]2[C@H](O)[C@@H](O)[C@H](N)C[C@@H]2N)O[C@H](CO)[C@@H](O)[C@@H]1OCO[C@@H]1[C@@H](N)[C@@H](O[C@H]2[C@H](O)[C@@H](O)[C@H](N)C[C@@H]2N)O[C@H](CO)[C@H]1O.O=S(=O)(O)O",
    "val": 22
  },
  {
    "smiles str": "N[C@H]1[C@@H](O[C@H]2[C@H](O)[C@@H](O)[C@H](N)C[C@@H]2N)O[C@H](CO)[C@@H](O)[C@H]1N.O=S(=O)(O)O",
    "val": 71
  },
  {
    "smiles str": "NC[C@H]1O[C@@H](O[C@@H]2[C@@H](O)[C@H](N)C[C@H](N)[C@H]2O[C@H]2O[C@H](CO)[C@@H](O)[C@H](O)[C@H]2N)[C@H](O)[C@@H]1O.O=S(=O)(O)O",
    "val": 72
  }
]

Now look at this one.
Task item: Value lookup for Activity; key = `NC[C@@H]1O[C@H](O[C@@H]2[C@@H](O)[C@H](O[C@H]3O[C@H](CO)[C@@H](O)[C@H](O)[C@H]3N)[C@@H](N)C[C@H]2N)[C@@H](O)[C@H]1O.O=S(=O)(O)O`
Reply: 75
